# System: Vero E6 infected with SARS-CoV-2
# test.protocol: inhibition of SARS-CoV-2 cytopathic effect; higher = more antiviral protection, active = above 15
# test.conditions: 833.33 nM; 48 h
Measured inhibition of SARS-CoV-2 cytopathic effect by item
The reply should contain only the number, in %.

Query: inhibition of SARS-CoV-2 cytopathic effect; subject: `Cc1cccc2c1CC[C@H](CN1CCC(c3c(Cl)cccc3Cl)CC1)C[C@@H]2O`
1.11

Query: inhibition of SARS-CoV-2 cytopathic effect; subject: CCCC(C)(COC(N)=O)COC(=O)NC(C)C (stereo not drawn)
4.43

Query: inhibition of SARS-CoV-2 cytopathic effect; subject: `CC[C@H](NC(=O)c1c(O)c(-c2ccccc2)nc2ccccc12)c1ccccc1`
-1.22

Query: inhibition of SARS-CoV-2 cytopathic effect; subject: O=c1nc2ccccc2c2n1CC(CN1CCN(c3ccccc3)CC1)N2 (stereo not drawn)
4.08

Query: inhibition of SARS-CoV-2 cytopathic effect; subject: `Cc1c[nH]c2ncnc(N3CCC(CN)(C(=O)Nc4cccc(OC(=O)N(C)C)c4)CC3)c12`
-0.25

Query: inhibition of SARS-CoV-2 cytopathic effect; subject: `CC(C)(C)C(=O)Oc1ccc(S(=O)(=O)Nc2ccccc2C(=O)NCC(=O)O)cc1`
1.84

Query: inhibition of SARS-CoV-2 cytopathic effect; subject: `O=C(CCN1CCN(C(=O)OCc2cc(Cl)cc(Cl)c2)CC1)c1ccc2[nH]c(=O)oc2c1`
4.56

Query: inhibition of SARS-CoV-2 cytopathic effect; subject: `CCC1(c2ccccc2)C(=O)N(COC)C(=O)N(COC)C1=O`
-0.57

Query: inhibition of SARS-CoV-2 cytopathic effect; subject: `CCOC(=O)[C@@]1(CCCCCCOc2ccc(Cl)cc2)CO1`
2.79

Query: inhibition of SARS-CoV-2 cytopathic effect; subject: `CCOC(=O)[C@H](Cc1ccc([N+](=O)[O-])cc1)NC(=O)c1ccccc1`
-1.21

Query: inhibition of SARS-CoV-2 cytopathic effect; subject: CC(=O)N1CCN(c2ccc(OC[C@@H]3CO[C@@](Cn4ccnc4)(c4ccc(Cl)cc4Cl)O3)cc2)CC1 (racemic)
0.35

Query: inhibition of SARS-CoV-2 cytopathic effect; subject: `CNCCCOc1cc(F)c(-c2c(Cl)nc3ncnn3c2N[C@@H](C)C(F)(F)F)c(F)c1`
6.1

Query: inhibition of SARS-CoV-2 cytopathic effect; subject: `CN1C(=O)c2c(nn(Cc3ccc(-c4cccc(F)n4)cc3)c2Nc2ccccc2)N2C1=N[C@@H]1CCC[C@@H]12`
3.15

Query: inhibition of SARS-CoV-2 cytopathic effect; subject: `Nc1[nH]cnc2ncnc1-2`
6.45

Query: inhibition of SARS-CoV-2 cytopathic effect; subject: Cc1cc2c(F)c(Oc3ncnn4cc(OC[C@@H](C)OC(=O)[C@H](C)N)c(C)c34)ccc2[nH]1 [brivanib-alaninate]
-0.19

Query: inhibition of SARS-CoV-2 cytopathic effect; subject: `COCC1=C(C(=O)O)N2C(=O)[C@@H](NC(=O)/C(=N\OC)c3csc(N)n3)[C@H]2SC1`
-0.98

Query: inhibition of SARS-CoV-2 cytopathic effect; subject: CC(COc1ccccc1)NC(C)C(O)c1ccc(O)cc1 (stereo not drawn)
1.95

Query: inhibition of SARS-CoV-2 cytopathic effect; subject: `COc1cc(Nc2c(C#N)cnc3cc(OCCCN4CCN(C)CC4)c(OC)cc23)c(Cl)cc1Cl`
-8.27

// provenance: the supplement of paper PMC13380429
